- Test system: BDL-induced cholestasis hepatic fibrosis in rats
- protocol: Bile duct ligation (BDL)-induced hepatic fibrosis in rats (biliary cirrhosis rat model)
- Format: in vivo, SD rats
- condition_description: 50 μg/kg subcutaneous every two days, 14 days
Numbered stars: 1 amine (or outer) side, 2 acyl side, 3 side chain; on linkers, the order of the positions; unused ones are H or OH. Square brackets hold non-standard residues; d marks the D form. Primed or numbered codes have the meaning given here. Side chains are listed from the residue outwards. Ends that are not written are not given here. * marks the point of attachment. C18 diacid = O=C(O)CCCCCCCCCCCCCCCCC(=O)*; γGlu = O=C(O)[C@H](CCC(=O)[*:2])N[*:1]; Palmitoyl = CCCCCCCCCCCCCCCC(=O)*; PEG2′ = not defined here; Aib = CC(C)(N)C(=O)O
quantity_kind: BDL-induced hepatic fibrosis and inflammation (HE, Sirius Red, IHC sections)

substance: His-(D-Ser)-Gln-Gly-Thr-Phe-Thr-Ser-Asp-Lys(PEG2-PEG2-CO(CH2)14CH3)-Ser-Lys-Tyr-Leu-Asp-Aib-Arg-Arg-Ala-Gln-Asp-Phe-Val-Gln-Trp-Leu-Leu-Asn-Thr-Gly-Gly-Pro-Ser-Ser-Gly-Ala-Pro-Pro-Pro-Ser-NH2 (H[dS]QGTFTSDK([PEG2′-PEG2′-Palmitoyl])SKYLD[Aib]RRAQDFVQWLLNTGGPSSGAPPPS-NH2) [Compound 44]
obs_value: significantly reduce
//
substance: His-(D-Ser)-Gln-Gly-Thr-Phe-Thr-Ser-Asp-Tyr-Ser-Lys(PEG2-PEG2-γGlu-CO(CH2)16CO2H)-Lys-Leu-Asp-Aib-Arg-Arg-Ala-Gln-Asp-Phe-Val-Gln-Trp-Leu-Met-Asn-Thr-Gly-Gly-Pro-Ser-Ser-Gly-Ala-Pro-Pro-Pro-Ser-NH2 (H[dS]QGTFTSDYSK([PEG2′-PEG2′-γGlu-C18 diacid])KLD[Aib]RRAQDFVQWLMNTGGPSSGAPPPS-NH2) [Compound 20]
obs_value: significantly reduce
